Test system: morphine analgesia
Experiment: Increase in analgesia of morphine, Tail Flick Test (Experiment 1)
Format: in vivo, rats
Conditions: mean 10-90 min; compound 10 mg/kg i.p. + morphine 2 mg/kg
Mark false (0) for M (10-90) ± SE, mean percentage variation of latency values under 60%, and true (1) for everything at or above.

[in] Is it the case that CCCCN(CCCC)C(=O)C(CCC(=O)O)NC(=O)c1ccc(Br)cc1 (stereo not shown) has M (10-90) ± SE, mean percentage variation of latency reaching or exceeding 60%?
[out] false (0)

[in] Repeat for the following compound: O=C(NC(CCC(=O)N1CCCCC1)C(=O)O)c1ccc(Cl)c(Cl)c1 (stereo not shown)
[out] true (1)

[in] Repeat for the following compound: Cc1ccc(C(=O)NC(CCC(=O)O)C(=O)NC2CCCCC2)cc1C (stereo not shown)
[out] false (0)

[in] Repeat for the following compound: CCCCN(CCCC)C(=O)C(CCC(=O)O)NC(=O)c1ccc(I)cc1 (stereo not shown)
[out] true (1)

[in] Repeat for the following compound: CCCCNC(=O)CCC(NC(=O)c1ccc(CCC)cc1)C(=O)O (stereo not shown)
[out] true (1)

[in] Repeat for the following compound: CCCN(CCC)C(=O)C(CCC(=O)O)NC(=O)c1ccc(I)cc1 (stereo not shown)
[out] false (0)

[in] Repeat for the following compound: CCCN(CCC)C(=O)C(CC(=O)O)NC(=O)c1cccc(C#N)c1 (stereo not shown)
[out] true (1)

[in] Repeat for the following compound: CCCN(CCC)C(=O)C(CCC(=O)O)NC(=O)c1ccc(Cl)c(Cl)c1 (stereo not shown)
[out] false (0)

[in] Repeat for the following compound: Cc1ccc(C(=O)NC(CCC(=O)N(C)C)C(=O)O)cc1C (stereo not shown)
[out] true (1)

[in] Repeat for the following compound: CCCCNC(=O)C(CCC(=O)O)NC(=O)c1cccc(C#N)c1 (stereo not shown)
[out] false (0)

[in] Repeat for the following compound: CCCN(CCC)C(=O)C(CCC(=O)O)NC(=O)c1ccc(C(F)(F)F)cc1 (stereo not shown)
[out] true (1)

[in] Repeat for the following compound: CCCCN(CCCC)C(=O)C(CCC(=O)O)NC(=O)c1cc(Cl)c(Cl)c(Cl)c1 (stereo not shown)
[out] false (0)

[in] Repeat for the following compound: CCCN(CCC)C(=O)C(CCC(=O)O)NC(=O)c1ccc(C)cc1 (stereo not shown)
[out] false (0)

---

Test system: morphine analgesia
Test: Increase in analgesia of morphine, Tail Flick Test (Experiment 1)
Assay type: in vivo, rats
Details: mean 10-90 min; compound 10 mg/kg i.p. + morphine 2 mg/kg
Would you mind telling me the reported M (10-90) ± SE, mean percentage variation of latency of each entry?
Value expressed in %; do not type the unit.

[in] // lookup M (10-90) ± SE, mean percentage variation of latency for CCCCCCNC(=O)C(CCC(=O)O)NC(=O)c1ccc(C)c(C)c1 (stereo not drawn)
[out] 32.9

[in] Repeat for the following compound: CCCCN(CCCC)C(=O)C(CCC(=O)O)NC(=O)c1cc(Cl)cc(Cl)c1 (stereo not drawn)
[out] 59.5

[in] Repeat for the following compound: CCCN(CCC)C(=O)C(CCC(=O)O)NC(=O)c1ccccc1Cl (stereo not drawn)
[out] 68.2

[in] Repeat for the following compound: CCCN(CCC)C(=O)C(CCC(=O)O)NC(=O)c1ccc(C)cc1C (stereo not drawn)
[out] 64.0

[in] Repeat for the following compound: CCCN(CCC)C(=O)CCC(NC(=O)c1ccc(C)c(C)c1)C(=O)O (stereo not drawn)
[out] 54.6

[in] Repeat for the following compound: CCCN(CCC)C(=O)C(CCC(=O)O)NC(=O)c1ccc(CC(C)C)cc1 (stereo not drawn)
[out] 78.8

[in] Repeat for the following compound: CCCCCN(CCCCC)C(=O)C(CCC(=O)O)NC(=O)c1ccc(Cl)cc1 (stereo not drawn)
[out] 57.1

[in] Repeat for the following compound: N#Cc1cccc(C(=O)NC(CC(=O)O)C(=O)NC2CCCCC2)c1 (stereo not drawn)
[out] 56.7

[in] Repeat for the following compound: CN(C)C(=O)CCC(NC(=O)c1ccc(Cl)c(Cl)c1)C(=O)O (stereo not drawn)
[out] 85.4

[in] Repeat for the following compound: CCCCNC(=O)C(CCC(=O)O)NC(=O)c1ccc(CCC)cc1 (stereo not drawn)
[out] 23.7

[in] Repeat for the following compound: CCCN(CCC)C(=O)C(CCC(=O)O)NC(=O)c1cc(C)cc(C)c1 (stereo not drawn)
[out] 50.4

[in] Repeat for the following compound: CCCN(CCC)C(=O)C(CCC(=O)O)NC(=O)c1ccc(F)cc1 (stereo not drawn)
[out] 55.5

[in] Repeat for the following compound: CCCCNC(=O)CC(NC(=O)c1ccc(Cl)c(Cl)c1)C(=O)O (stereo not drawn)
[out] 61.5

[in] Repeat for the following compound: CCc1ccc(C(=O)NC(CCC(=O)O)C(=O)NC2CCCCC2)cc1 (stereo not drawn)
[out] 53.1

[in] Repeat for the following compound: Cc1ccc(C(=O)NC(CCC(=O)O)C(=O)N(C)C)cc1C (stereo not drawn)
[out] 49.8

[in] Repeat for the following compound: CCCCN(CCCC)C(=O)CCC(NC(=O)c1ccc(Cl)c(Cl)c1)C(=O)O (stereo not drawn)
[out] 93.2

[in] Repeat for the following compound: N#Cc1cccc(C(=O)NC(CCC(=O)N2CCCCC2)C(=O)O)c1 (stereo not drawn)
[out] 69.1

[in] Repeat for the following compound: CCCCN(CCCC)C(=O)C(CCC(=O)O)NC(=O)c1cccc(C#N)c1 (stereo not drawn)
[out] 85.6

---

Tested on: morphine analgesia
Assay: Increase in analgesia of morphine, Tail Flick Test (Experiment 1)
Format: in vivo, rats
Settings: mean 10-90 min; compound 10 mg/kg i.p. + morphine 2 mg/kg
# note: exactly 60% is not below, so it is no; use yes for M (10-90) ± SE, mean percentage variation of latency strictly under it

[in] State whether 60% exceeds M (10-90) ± SE, mean percentage variation of latency recorded for CCCN(CCC)C(=O)C(CCC(=O)O)NC(=O)c1ccccc1Br (centres unmarked) [Compound C-14] .
[out] no

[in] Repeat for the following molecule: CCCN(CCC)C(=O)C(CCC(=O)O)NC(=O)c1c(C)cc(C)cc1C (centres unmarked) [Compound C-33]
[out] yes

[in] Repeat for the following molecule: CCCN(CCC)C(=O)C(CCC(=O)O)NC(=O)c1ccc(C)c(C)c1 (centres unmarked) [Compound C-30]
[out] no

[in] Repeat for the following molecule: CCCN(CCC)C(=O)C(CCC(=O)O)NC(=O)c1ccc(C(C)C)cc1 (centres unmarked) [Compound C-36]
[out] no

[in] Repeat for the following molecule: CCN(CC)C(=O)C(CCC(=O)O)NC(=O)c1ccc(C)c(C)c1 (centres unmarked) [Compound C-40]
[out] no
